Overview of reported AC50 across a group of compounds:
# Measurement target: Delta-type opioid receptor (Homo sapiens, UniProt P41143); also: assay procedure not described here
# Sequence (P41143 whole entry): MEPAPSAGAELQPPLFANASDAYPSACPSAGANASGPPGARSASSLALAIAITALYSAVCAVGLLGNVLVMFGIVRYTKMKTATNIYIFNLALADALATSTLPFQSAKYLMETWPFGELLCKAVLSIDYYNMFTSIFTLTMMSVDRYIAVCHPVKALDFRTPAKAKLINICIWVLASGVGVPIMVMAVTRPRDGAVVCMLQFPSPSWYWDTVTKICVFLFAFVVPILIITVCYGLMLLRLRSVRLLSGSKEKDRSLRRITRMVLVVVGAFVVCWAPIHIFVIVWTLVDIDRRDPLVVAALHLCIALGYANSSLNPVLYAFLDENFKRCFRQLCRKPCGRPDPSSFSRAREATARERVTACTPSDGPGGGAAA

Would you please look over these solved cases?
* CC(=O)Oc1ccccc1C(=O)Nc1ncc([N+](=O)[O-])s1 [NITAZOXANIDE] | 5 µM
* NC(=O)c1ncn([C@@H]2O[C@H](CO)[C@@H](O)[C@H]2O)n1 | > 30 µM
* N#Cc1ccccc1-c1cc(-c2ccccn2)cn(-c2ccccc2)c1=O | > 30 µM

Query :: Form field: AC50 recorded for CC(C)CC(N(C)C)C1(c2ccc(Cl)cc2)CCC1 (configuration not stated) with Delta-type opioid receptor (Homo sapiens, UniProt P41143) (enter value)
Result :: > 30 µM

Query :: Form field: AC50 recorded for CCN(CC)C(=O)C1CN2CCc3cc(OC)c(OC)cc3C2CC1OC(C)=O (configuration not stated) [BENZQUINAMIDE] with Delta-type opioid receptor (Homo sapiens, UniProt P41143) (enter value)
Result :: > 30 µM

Query :: Form field: AC50 recorded for CC[C@@H](CO)NC(=O)[C@@H]1C=C2c3cccc4[nH]cc(c34)C[C@H]2N(C)C1 with Delta-type opioid receptor (Homo sapiens, UniProt P41143) (enter value)
Result :: > 30 µM

Query :: Form field: AC50 recorded for CO[C@@]1(NC(=O)CSCC#N)C(=O)N2C(C(=O)O)=C(CSc3nnnn3C)CS[C@@H]21 with Delta-type opioid receptor (Homo sapiens, UniProt P41143) (enter value)
Result :: > 30 µM

Query :: Form field: AC50 recorded for Cc1cnc(NC(=O)C2=C(O)c3ccccc3S(=O)(=O)N2C)s1 with Delta-type opioid receptor (Homo sapiens, UniProt P41143) (enter value)
Result :: > 10 µM

Query :: Form field: AC50 recorded for C[C@@H]1CCC[C@H](C)N1NC(=O)c1ccc(Cl)c(S(N)(=O)=O)c1 [CLOPAMIDE] with Delta-type opioid receptor (Homo sapiens, UniProt P41143) (enter value)
Result :: > 30 µM

Query :: Form field: AC50 recorded for CNCCC=C1c2ccccc2CCc2ccccc21 with Delta-type opioid receptor (Homo sapiens, UniProt P41143) (enter value)
Result :: > 30 µM

Query :: Form field: AC50 recorded for Clc1ccc(C(Cn2ccnc2)OCc2ccc(Sc3ccccc3)cc2)c(Cl)c1 (configuration not stated) with Delta-type opioid receptor (Homo sapiens, UniProt P41143) (enter value)
Result :: > 30 µM

Query :: Form field: AC50 recorded for CNC[C@H](O)c1cccc(O)c1 with Delta-type opioid receptor (Homo sapiens, UniProt P41143) (enter value)
Result :: > 10 µM

Query :: Form field: AC50 recorded for C#C[C@]1(O)CC[C@H]2[C@@H]3CCc4cc(OC)ccc4[C@H]3CC[C@@]21C with Delta-type opioid receptor (Homo sapiens, UniProt P41143) (enter value)
Result :: > 30 µM

Query :: Form field: AC50 recorded for COCCOC(=O)C1=C(C)NC(C)=C(C(=O)OC/C=C/c2ccccc2)C1c1cccc([N+](=O)[O-])c1 (configuration not stated) with Delta-type opioid receptor (Homo sapiens, UniProt P41143) (enter value)
Result :: > 30 µM

Query :: Form field: AC50 recorded for CC1(C)O[C@@H]2C[C@H]3[C@@H]4C[C@H](F)C5=CC(=O)C=C[C@]5(C)[C@H]4[C@@H](O)C[C@]3(C)[C@]2(C(=O)CO)O1 [FLUNISOLIDE] with Delta-type opioid receptor (Homo sapiens, UniProt P41143) (enter value)
Result :: > 30 µM

Query :: Form field: AC50 recorded for CCCN(CCC)CCc1cccc2c1CC(=O)N2 with Delta-type opioid receptor (Homo sapiens, UniProt P41143) (enter value)
Result :: > 30 µM

Query :: Form field: AC50 recorded for Nc1nc2c(c(=O)[nH]1)N(C=O)C(CNc1ccc(C(=O)N[C@@H](CCC(=O)O)C(=O)O)cc1)CN2 (some centres not stated) with Delta-type opioid receptor (Homo sapiens, UniProt P41143) (enter value)
Result :: > 30 µM

----------
# Measurement target: Cannabinoid receptor 1 (Homo sapiens, UniProt P21554); also: assay procedure not described here
# Sequence (P21554 whole entry): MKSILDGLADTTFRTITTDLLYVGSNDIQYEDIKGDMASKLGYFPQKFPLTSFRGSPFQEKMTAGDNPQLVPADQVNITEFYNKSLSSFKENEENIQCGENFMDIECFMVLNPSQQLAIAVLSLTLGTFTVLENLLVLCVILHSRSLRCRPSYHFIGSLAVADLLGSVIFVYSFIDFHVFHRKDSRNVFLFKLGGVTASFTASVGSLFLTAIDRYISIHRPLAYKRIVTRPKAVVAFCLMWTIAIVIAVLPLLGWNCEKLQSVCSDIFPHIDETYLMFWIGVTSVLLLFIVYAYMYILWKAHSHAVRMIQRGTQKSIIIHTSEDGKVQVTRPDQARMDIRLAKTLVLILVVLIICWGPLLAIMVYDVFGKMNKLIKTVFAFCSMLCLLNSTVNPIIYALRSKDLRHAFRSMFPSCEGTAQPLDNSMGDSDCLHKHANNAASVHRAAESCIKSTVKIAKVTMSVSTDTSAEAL
Measured parameter: AC50

Would you please look over these solved cases?
• CC(C)CC(N(C)C)C1(c2ccc(Cl)cc2)CCC1 (stereo not drawn) [SIBUTRAMINE] = > 10 µM
• O=C(O)c1ccccc1Nc1cccc(C(F)(F)F)c1 [FLUFENAMIC ACID] = > 10 µM
• CC1(C)S[C@@H]2[C@H](NC(=O)[C@H](N)c3ccc(O)cc3)C(=O)N2[C@H]1C(=O)O [AMOXICILLIN] = > 30 µM

Query :: Form field: AC50 recorded for Cn1c(=O)c2[nH]cnc2n(C)c1=O [THEOPHYLLINE] with Cannabinoid receptor 1 (Homo sapiens, UniProt P21554) (enter value)
Result :: > 10 µM

Query :: Form field: AC50 recorded for CC(=O)/N=c1/sc(S(N)(=O)=O)nn1C [METHAZOLAMIDE] with Cannabinoid receptor 1 (Homo sapiens, UniProt P21554) (enter value)
Result :: > 10 µM

Query :: Form field: AC50 recorded for NC(=O)CCC/N=C(\c1ccc(Cl)cc1)c1cc(F)ccc1O [PROGABIDE] with Cannabinoid receptor 1 (Homo sapiens, UniProt P21554) (enter value)
Result :: > 10 µM

Query :: Form field: AC50 recorded for [H]/N=C(/N)N[C@H]1[C@H](O)[C@@H](O)[C@H](O[C@@H]2O[C@@H](C)[C@](O)(C=O)[C@H]2O[C@@H]2O[C@@H](CO)[C@H](O)[C@@H](O)[C@@H]2NC)[C@@H](N/C(N)=N\[H])[C@@H]1O [STREPTOMYCIN] with Cannabinoid receptor 1 (Homo sapiens, UniProt P21554) (enter value)
Result :: > 30 µM

Query :: Form field: AC50 recorded for CC1(C)C(C=C(Cl)Cl)C1C(=O)OCc1cccc(Oc2ccccc2)c1 (stereo not drawn) [PERMETHRIN] with Cannabinoid receptor 1 (Homo sapiens, UniProt P21554) (enter value)
Result :: 18.2 µM

----------
Overview of reported AC50 across a group of compounds:
# Measurement target: Histamine H2 receptor (Homo sapiens); also: assay procedure not described here
# Sequence (P25021 whole entry): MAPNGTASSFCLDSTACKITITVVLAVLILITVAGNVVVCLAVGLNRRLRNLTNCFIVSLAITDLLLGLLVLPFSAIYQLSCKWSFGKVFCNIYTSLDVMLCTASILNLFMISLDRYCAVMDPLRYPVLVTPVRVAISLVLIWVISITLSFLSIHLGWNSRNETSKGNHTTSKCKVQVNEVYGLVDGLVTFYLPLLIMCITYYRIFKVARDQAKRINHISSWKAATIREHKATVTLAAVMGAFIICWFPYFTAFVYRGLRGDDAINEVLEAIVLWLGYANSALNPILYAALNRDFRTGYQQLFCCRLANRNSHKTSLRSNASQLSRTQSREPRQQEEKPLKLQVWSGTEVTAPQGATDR
# Type: functional, cell-based

Would you please look over these solved cases?
- CCCC[C@H](C)C[C@H](O)/C=C/[C@H]1[C@H](O)CC(=O)[C@@H]1CCCC/C=C/C(=O)O [LIMAPROST]: > 30 µM
- Cc1cc(CC(=O)O)n(C)c1C(=O)c1ccc(Cl)cc1 [ZOMEPIRAC]: > 30 µM
- CO[C@@]1(NC(=O)CSCC#N)C(=O)N2C(C(=O)O)=C(CSc3nnnn3C)CS[C@@H]21 [CEFMETAZOLE]: > 30 µM
- Nc1ccn([C@@H]2O[C@H](CO)[C@@H](O)C2(F)F)c(=O)n1 [GEMCITABINE]: > 10 µM
- CCc1oc2ccccc2c1C(=O)c1cc(Br)c(O)c(Br)c1 [BENZBROMARONE]: > 10 µM
- CC(=O)O[C@H]1C[C@@H]2CC[C@@H]3[C@H](CC[C@@]4(C)[C@H]3C[C@H]([N+]3(C)CCCCC3)[C@@H]4OC(C)=O)[C@@]2(C)C[C@@H]1[N+]1(C)CCCCC1 [PANCURONIUM]: > 10 µM
- CNCC[C@H](Oc1cccc2ccccc12)c1cccs1 [DULOXETINE]: > 10 µM
- CCN(CC)CC(=O)Oc1ccc(NC(C)=O)cc1 [PROPACETAMOL]: > 30 µM

Query :: Any idea what AC50 was measured for N#Cc1ccccc1-c1cc(-c2ccccn2)cn(-c2ccccc2)c1=O ?
Result :: > 30 µM

Query :: Any idea what AC50 was measured for Cc1cccc(N(C)C(=S)Oc2ccc3ccccc3c2)c1 [TOLNAFTATE] ?
Result :: > 30 µM

Query :: Any idea what AC50 was measured for CC[C@H]1OC(=O)[C@H](C)[C@@H](O[C@H]2C[C@@](C)(OC)[C@@H](O)[C@H](C)O2)[C@H](C)[C@@H](O[C@@H]2O[C@H](C)C[C@H](N(C)C)[C@H]2O)[C@](C)(OC)C[C@@H](C)C(=O)[C@H](C)[C@@H](O)[C@]1(C)O [CLARITHROMYCIN] ?
Result :: > 30 µM

Query :: Any idea what AC50 was measured for Oc1c(I)cc(Cl)c2cccnc12 [CLIOQUINOL] ?
Result :: > 30 µM

----------
# Measurement target: Voltage-gated inwardly rectifying potassium channel KCNH2 (Homo sapiens); also: assay procedure not described here
# Sequence (Q12809 whole entry): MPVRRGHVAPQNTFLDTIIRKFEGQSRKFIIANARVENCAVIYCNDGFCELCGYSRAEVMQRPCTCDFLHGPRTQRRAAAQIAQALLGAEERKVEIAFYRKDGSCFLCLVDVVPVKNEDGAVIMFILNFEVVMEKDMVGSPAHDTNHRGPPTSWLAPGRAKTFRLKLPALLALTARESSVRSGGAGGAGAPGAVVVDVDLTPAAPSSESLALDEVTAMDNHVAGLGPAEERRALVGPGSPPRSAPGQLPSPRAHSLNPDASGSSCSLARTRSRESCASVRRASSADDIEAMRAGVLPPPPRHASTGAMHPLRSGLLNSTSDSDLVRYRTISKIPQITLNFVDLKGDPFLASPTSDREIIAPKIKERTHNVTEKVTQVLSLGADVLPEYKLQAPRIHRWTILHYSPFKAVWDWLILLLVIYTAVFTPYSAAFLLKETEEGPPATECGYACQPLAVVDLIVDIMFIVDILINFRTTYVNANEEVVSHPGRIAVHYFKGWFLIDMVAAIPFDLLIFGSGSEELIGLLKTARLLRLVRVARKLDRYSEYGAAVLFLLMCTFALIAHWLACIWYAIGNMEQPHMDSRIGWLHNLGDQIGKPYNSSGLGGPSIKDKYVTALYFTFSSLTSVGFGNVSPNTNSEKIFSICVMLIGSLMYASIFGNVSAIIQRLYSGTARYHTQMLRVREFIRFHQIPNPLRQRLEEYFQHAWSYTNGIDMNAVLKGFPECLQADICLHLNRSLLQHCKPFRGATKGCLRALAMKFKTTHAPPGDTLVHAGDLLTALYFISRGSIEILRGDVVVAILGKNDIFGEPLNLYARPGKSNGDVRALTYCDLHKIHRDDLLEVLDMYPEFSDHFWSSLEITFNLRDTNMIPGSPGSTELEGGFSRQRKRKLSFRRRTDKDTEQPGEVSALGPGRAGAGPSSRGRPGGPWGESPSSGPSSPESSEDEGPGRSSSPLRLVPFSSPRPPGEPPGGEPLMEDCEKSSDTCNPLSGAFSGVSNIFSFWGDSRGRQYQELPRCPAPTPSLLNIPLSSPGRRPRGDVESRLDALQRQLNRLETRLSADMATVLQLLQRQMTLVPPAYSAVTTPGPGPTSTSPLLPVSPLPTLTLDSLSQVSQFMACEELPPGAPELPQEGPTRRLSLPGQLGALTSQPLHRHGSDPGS
# Assay type: functional
# Run conditions: read-out: AC50
Measured parameter: AC50

Would you please look over these solved cases?
* CCCCCCCCCCCCCCCC(=O)OC/C=C(C)/C=C/C=C(C)/C=C/C1=C(C)CCCC1(C)C [VITAMIN A PALMITATE] | > 30 µM
* COc1cc([C@@H]2c3cc4c(cc3[C@@H](O[C@@H]3O[C@@H]5CO[C@@H](c6cccs6)O[C@H]5[C@H](O)[C@H]3O)[C@H]3COC(=O)[C@H]23)OCO4)cc(OC)c1O [TENIPOSIDE] | > 30 µM
* C=CC1=C(C(=O)O)N2C(=O)[C@@H](NC(=O)/C(=N\OCC(=O)O)c3csc(N)n3)[C@H]2SC1 | > 30 µM
* Cn1c(=O)c2[nH]cnc2n(C)c1=O | > 30 µM
* CO/N=C(\C(=O)N[C@@H]1C(=O)N2C(C(=O)O)=C(COC(N)=O)CS[C@H]12)c1ccco1 | > 30 µM

Query :: Any idea what AC50 was measured for Clc1ccc2c(c1)C(c1ccccc1)=NCc1nncn1-2 ?
Result :: > 30 µM

Query :: Any idea what AC50 was measured for COCCOC(=O)C1=C(C)NC(C)=C(C(=O)OC/C=C/c2ccccc2)C1c1cccc([N+](=O)[O-])c1 (configuration not stated) ?
Result :: > 30 µM

Query :: Any idea what AC50 was measured for Nc1nc(F)nc2c1ncn2[C@@H]1O[C@H](COP(=O)(O)O)[C@@H](O)[C@@H]1O [FLUDARABINE PHOSPHATE] ?
Result :: > 30 µM

Query :: Any idea what AC50 was measured for CCCCCCCCNC(C)C(O)c1ccc(SC(C)C)cc1 (configuration not stated) ?
Result :: 0.43 µM

Query :: Any idea what AC50 was measured for CC(=O)O[C@H]1C[C@@H]2CC[C@@H]3[C@H](CC[C@@]4(C)[C@H]3C[C@H]([N+]3(C)CCCCC3)[C@@H]4OC(C)=O)[C@@]2(C)C[C@@H]1[N+]1(C)CCCCC1 ?
Result :: 1.26 µM

Query :: Any idea what AC50 was measured for COc1cc(OC)c(C(=O)CCCN2CCCC2)c(OC)c1 ?
Result :: 2.6 µM

Query :: Any idea what AC50 was measured for CCSc1ccc2c(c1)N(CCCN1CCN(C)CC1)c1ccccc1S2 ?
Result :: 1.2 µM

Query :: Any idea what AC50 was measured for N#C[C@@H]1CCCN1C(=O)CNC12CC3CC(CC(O)(C3)C1)C2 ?
Result :: > 30 µM
